# protocol-text: Cellular viability qHTS for adrenocortical cancer (ACC) cell line SW-13 (AID 1963989); further: potency means the concentration at half of the fitted maximal effect; nearly all actives have a fitted effect of over 65% in size
# condition-label: SW-13 ACC cells viability, CellTiter-Glo, 48 h
Results filed as inconclusive are left out. The source made the active and inactive calls. The call rests on the fitted dose curve; in most records, active means well fitted cell-killing curve with a large enough effect; inconclusive means small, poorly fitted or top-dose-only effect; inactive means flat fitted curve, though single readings scatter.

| molecule | Potency |
| --- | --- |
| CCS(=O)(=O)c1cccc(-c2cc(C(=O)NC3CCN(C)CC3)c(C)c3[nH]c4ncc(C)cc4c23)c1 | 1 µM (active) |
| C#Cc1cccc(Nc2ncnc3cc(OC)c(OCCCCCCC(=O)NO)cc23)c1 | 1.78 µM (active) |
| COC1CCC(N2C(=O)CNc3ncc(-c4ccc(C(C)(C)O)nc4)nc32)CC1 (stereo not given) | 15.8 µM (active) |
| COc1cc(O)c2c(c1)C1OC1C[C@H](O)[C@H](O)C(=O)C=CC[C@H](C)OC2=O (stereo not given in full) | 15.8 µM (active) |
| CC/C(=C(\c1ccccc1)c1ccc(OCCN(C)C)cc1)c1ccccc1 | 6.31 µM (active) |

====

# protocol-text: Viability qHTS for spleen associated tyrosine kinase inhibitor (SYKi) naive MV4-11 cells (AID 1963823); further: nearly all actives have a fitted effect of over 40% in size; further: potency means the concentration at half of the fitted maximal effect
# condition-label: MV4-11 AML viability, CellTiter-Glo luminescence, 72 h; series mostly up to 45 µM
Results filed as inconclusive are left out. Activity calls are given as the source filed them. Calls come from the whole dose curve; as a rule, active = well fitted cell-killing curve with a large enough effect; inconclusive = small, poorly fitted or top-dose-only effect, or effect the other way; inactive = no such curve, though single readings can be large or run the other way.

| compound | Potency |
| --- | --- |
| C[C@H]1O[C@@H](O[C@H]2CC[C@@]3(C)C(CC[C@]4(C)C3CC=C3C5CC(C)(C)CC[C@]5(C(=O)O)CC[C@]34C(=O)O)C2(C)C)[C@H](O)[C@@H](O)[C@@H]1O (some centres undefined) | inactive |
| CNC(=O)[C@H](Cc1ccccc1)NC(=O)[C@H](CC(C)C)[C@H](CSc1cccs1)C(=O)NO | 5.25 µM (active) |
| CC(C(=O)O)c1ccc2c(c1)[nH]c1ccc(Cl)cc12 (centres undefined) | inactive |
| Nc1cc(C(Cl)=C(Cl)Cl)c(S(N)(=O)=O)cc1S(N)(=O)=O | inactive |
| CCC[C@@]1(CCc2ccccc2)CC(O)=C([C@H](CC)c2cccc(NS(=O)(=O)c3ccc(C(F)(F)F)cn3)c2)C(=O)O1 | 20.6 µM (active) |
| Cc1nc2n(c(=O)c1CCN1CCC(c3noc4cc(F)ccc34)CC1)CCC[C@H]2O | inactive |
| CC(=O)c1[nH]cc(CCC(=O)O)c1CC(=O)O | 0.231 µM (active) |
| COc1cc(-c2cc(-c3ccc(N4CCNCC4)cc3)cnc2C)cc(OC)c1OC | 7.42 µM (active) |
| CC12CC(O)C(O)C=C1c1cc(O)cc(O)c1C(=O)O2 (centres undefined) | inactive |

====

# protocol-text: Quantitative highthroughput screen to assess conditional lethalithy of P12 Ichikawa cells grown in RPMI1640 with untreated serum (RPMI+s) (AID 1963881); further: nearly all actives have a fitted effect of over 35% in size; further: potency means the concentration at half of the fitted maximal effect
# condition-label: ATP luminescence, 48 h; viability; series mostly up to 45.8 µM
Results filed as inconclusive are left out. Active and inactive are the calls of the source. Calls come from the whole dose curve; as a rule, active = well fitted cell-killing curve with a large enough effect; inconclusive = small, poorly fitted or top-dose-only effect; inactive = flat fitted curve, though single readings scatter.
attribute-measured: Potency

| compound | attribute-measured | endpoint-result |
| --- | --- | --- |
| CC(C)n1cnc2c(NCCc3ccc(O)cc3)nc(-c3csc4ccccc34)nc21 | Potency | 14.8 µM (active) |
| COc1ccc(Cc2nccc3cc(OC)c(OC)cc23)cc1OC | Potency | inactive |
| CCn1c(C(=O)N(C2CC2)C2CC2)cc2c3c(ncn3C)c(Nc3cc(C)n(C)n3)nc21 | Potency | inactive |
| NC(=O)c1cccc(-c2cc(Nc3ccc(OC(F)(F)F)cc3)ncn2)c1 | Potency | inactive |
| CC(C)C(=O)Nc1ccc([N+](=O)[O-])c(C(F)(F)F)c1 | Potency | 2.09 µM (active) |
| CC(C=CC1=C(C)CCCC1(C)C)=CC=CC(C)=CC(=O)Nc1ccc(O)cc1 | Potency | 6.05 µM (active) |
| CCCCN1CCC(CNC(=O)c2c3n(c4ccccc24)CCCO3)CC1 | Potency | 16.6 µM (active) |
| CC(C)C[C@H](NC(=O)CNC(=O)c1cc(Cl)ccc1Cl)B1OC(=O)CC(CC(=O)O)(C(=O)O)O1 (stereo not given in full) | Potency | 0.296 µM (active) |
| CC(C)(C)c1cc(C(=O)O)c(NC(=O)Nc2ccc3[nH]ncc3c2)s1 | Potency | inactive |
| Cc1cnc(Nc2cccc(CN3CCOCC3)c2)nc1Nc1cccc(S(=O)(=O)NC(C)(C)C)c1 | Potency | inactive |
